# subjectOfTest: recombinant human IL-31 (C108S), produced in E. coli by ZymoGenetics, MW 18 kDa (human), Q6EBC2
# testProtocol: cell-based or functional assay
measuredAttribute: log10 Average Potency (IC50), inhibition of hIL-31-induced proliferation of BAF-3(hIL-31R) cells (log10 of the value in µM)
Quick note: numbers are log10 of Average Potency (IC50), inhibition of hIL-31-induced proliferation of BAF-3(hIL-31R) cells, with µM as the unit.

Some solved entries appear below for comparison.
| binder | reportedResult |
| --- | --- |
| humanized 292.12.3.1 construct clone 7 (12VH1-gly + fback) (antibody, human IgG4, V domains shown, also called 07) VH: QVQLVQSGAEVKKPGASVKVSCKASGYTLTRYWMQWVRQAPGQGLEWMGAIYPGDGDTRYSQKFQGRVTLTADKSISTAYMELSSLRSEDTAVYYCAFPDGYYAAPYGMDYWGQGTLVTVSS VL: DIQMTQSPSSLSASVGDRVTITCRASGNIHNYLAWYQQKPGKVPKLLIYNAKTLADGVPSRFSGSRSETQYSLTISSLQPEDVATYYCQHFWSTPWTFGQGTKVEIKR | -2.35 |
| humanized 292.12.3.1 construct clone 11 (12VH5-gly + HC(fback)) (antibody, human IgG4, V domains shown) VH: EVQLVQSGAEVKKPGESLKISCKASGYTLTRYWMQWVRQMPGKGLEWMGAIYPGDGDTRYSPSFQGQVTLTADKSISTAYLQWSSLKASDTAMYYCAFPDGYYAAPYGMDYWGQGTTVTVSS VL: DIQMTQSPSSLSASVGDRVTITCRASGNIHNYLAWYQQKPGKVPKLLIYNAKTLADGVPSRFSGSGSGTDFTLTISSLQPEDVATYYCQHFWSTPWTFGQGTKVEIKR | -1.64 |
| humanized 292.12.3.1 construct clone 36 (12VH1(germ)-gly + HC(F29L, T73K, R94F) + LC(F71Y)) (antibody, human IgG4, V domains shown) VH: QVQLVQSGAEVKKPGASVKVSCKASGYTLTRYWMQWVRQAPGQGLEWMGAIYPGDGDTRYSQKFQGRVTMTRDKSTSTVYMELSSLRSEDTAVYYCAFPDGYYAAPYGMDYWGQGTLVTVSS VL: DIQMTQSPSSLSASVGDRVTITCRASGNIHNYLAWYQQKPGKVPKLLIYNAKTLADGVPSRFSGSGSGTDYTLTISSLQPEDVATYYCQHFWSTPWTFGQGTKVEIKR | -1.85 |

Q) Item humanized 292.12.3.1 construct clone 9 (12VH1-gly + HC(fback)) (antibody, human IgG4, V domains shown, also called 09) VH: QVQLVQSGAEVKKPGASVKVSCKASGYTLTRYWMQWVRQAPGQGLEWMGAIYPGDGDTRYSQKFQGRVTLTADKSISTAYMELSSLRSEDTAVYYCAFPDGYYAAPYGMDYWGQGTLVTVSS VL: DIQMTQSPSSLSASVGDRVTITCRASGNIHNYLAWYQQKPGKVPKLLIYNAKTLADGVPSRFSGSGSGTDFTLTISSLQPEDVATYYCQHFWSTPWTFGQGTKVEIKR : provide log10 Average Potency (IC50), inhibition of hIL-31-induced proliferation of BAF-3(hIL-31R) cells
A) -1.55

Q) Item humanized 292.12.3.1 construct clone 13 (12VH1-gly + HC(F29L, M69L, R71A, T73K, V78A) + LC(fback)) (antibody, human IgG4, V domains shown) VH: QVQLVQSGAEVKKPGASVKVSCKASGYTLTRYWMQWVRQAPGQGLEWMGAIYPGDGDTRYSQKFQGRVTLTADKSISTAYMELSSLRSEDTAVYYCARPDGYYAAPYGMDYWGQGTLVTVSS VL: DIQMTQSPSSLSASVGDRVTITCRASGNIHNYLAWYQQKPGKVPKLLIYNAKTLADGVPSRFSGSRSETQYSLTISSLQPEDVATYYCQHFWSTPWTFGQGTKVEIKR : provide log10 Average Potency (IC50), inhibition of hIL-31-induced proliferation of BAF-3(hIL-31R) cells
A) -0.96

Q) Item humanized 292.12.3.1 construct clone 17 (12VH1-gly + HC(fback) + LC(D70Q, F71Y, T72S)) (antibody, human IgG4, V domains shown) VH: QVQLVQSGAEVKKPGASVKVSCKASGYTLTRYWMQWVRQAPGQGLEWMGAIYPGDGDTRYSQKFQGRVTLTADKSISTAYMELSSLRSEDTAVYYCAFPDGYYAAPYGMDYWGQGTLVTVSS VL: DIQMTQSPSSLSASVGDRVTITCRASGNIHNYLAWYQQKPGKVPKLLIYNAKTLADGVPSRFSGSGSGTQYSLTISSLQPEDVATYYCQHFWSTPWTFGQGTKVEIKR : provide log10 Average Potency (IC50), inhibition of hIL-31-induced proliferation of BAF-3(hIL-31R) cells
A) -2.23
